Biological target: T1, human TROP2 protein (Sino Biological, #10428-H08H) (human, UniProt P09758 27-274)
T1 construct: bought protein; also called human Trop2 protein antigen (His tag); not shown: His tag
T1 sequence (looked up): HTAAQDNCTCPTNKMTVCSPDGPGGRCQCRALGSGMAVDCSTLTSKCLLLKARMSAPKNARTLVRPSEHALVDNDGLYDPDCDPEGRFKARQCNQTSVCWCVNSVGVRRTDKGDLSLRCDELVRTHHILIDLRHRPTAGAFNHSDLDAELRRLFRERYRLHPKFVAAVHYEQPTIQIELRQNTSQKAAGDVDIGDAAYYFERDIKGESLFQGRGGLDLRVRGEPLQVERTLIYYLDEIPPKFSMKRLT
Assay: BLI, Octet RED96, AHC sensor
Property label: kon (M⁻¹ s⁻¹)
Provide only the numeric value, understood in M⁻¹ s⁻¹.

Example binders with recorded kon:
Binder | kon, M⁻¹ s⁻¹
PR001154 (antibody, human IgG1, kappa, V domains shown, fully human IgG1/kappa; also called antibody No. (17)) VH: QVQLVESGGGVVQPGRSLRLSCEASGFTFSHYGMHWVRQAPGKGLEWVAVIWYDGIKKYYIESVKGRFIISRDNSKNTLYLQMNRLRAEDTAVYYCARDGGFGELNYYGLDVWGQGTTVTVSS VL: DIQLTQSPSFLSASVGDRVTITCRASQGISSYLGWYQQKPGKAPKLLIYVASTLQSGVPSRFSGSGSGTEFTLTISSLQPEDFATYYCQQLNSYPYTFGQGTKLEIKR | 108000
PR001142 (antibody, human IgG1, kappa, V domains shown, fully human IgG1/kappa; also called antibody No. (9)) VH: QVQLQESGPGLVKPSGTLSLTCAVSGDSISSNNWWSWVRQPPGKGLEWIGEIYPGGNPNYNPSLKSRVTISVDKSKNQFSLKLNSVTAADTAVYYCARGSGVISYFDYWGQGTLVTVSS VL: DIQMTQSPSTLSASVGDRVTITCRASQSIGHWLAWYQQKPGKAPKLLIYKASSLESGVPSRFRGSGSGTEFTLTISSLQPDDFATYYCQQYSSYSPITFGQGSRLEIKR | 272000
PR001170 (antibody, human IgG1, kappa, V domains shown, fully human IgG1/kappa; also called antibody No. (29)) VH: QVQLQESGPGLVKPSETLSLTCAVSGYSINSGYFWAWIRQPPGMGLEWIGSIYHSGRTHYNPSLKSRVIISLDTSKNQFSLKLRSVTAADSAVYYCAREGYASGSYYWGQGTLVTVSS VL: EIVMTQSPATLSVSPGERATLSCRSSQSVNSYLAWFQQKPGQAPRLLIYDSSTRATGIPARFSGSGSGTEFTLTISSLQSEDFAFYFCQQYENWPLTFGGGTKVEIKR | 476000

Report kon for PR001163 (antibody, human IgG1, kappa, V domains shown, fully human IgG1/kappa; also called antibody No. (24)) VH: QVQLVESGGDVVQPGRSLRLSCEASGFTFSHYGMHWVRQAPGKGLEWVAVVWYDGIKKYYVESVKGRFTISRDNSKNTLYLQMNRLRAEDTAVYYCARDGGFGELNYYGLDVWGQGTTVTVSS VL: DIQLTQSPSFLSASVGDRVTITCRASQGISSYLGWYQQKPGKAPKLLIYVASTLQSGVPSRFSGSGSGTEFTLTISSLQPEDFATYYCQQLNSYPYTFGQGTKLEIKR please.
106000

# input binder: PR001150 (antibody, human IgG1, kappa, V domains shown, fully human IgG1/kappa; also called antibody No. (13)) VH: QVQLVESGGGVVQPEKSLRLSCAASGFTFSHYGMHWVRQVPGKGLEWVAVIWYDGIKRYYVESVKGRFTISRDNSKNTLYLQMNRLRAEDTAVYYCARDGGFGESNYYGLDVWGQGTTVTVSS VL: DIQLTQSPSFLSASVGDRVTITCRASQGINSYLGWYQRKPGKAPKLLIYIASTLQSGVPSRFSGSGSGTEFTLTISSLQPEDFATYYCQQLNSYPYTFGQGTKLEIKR ; wanted: its kon
161000
